Data origin: PubChem BioAssay (NCI)

# key: entry, value: growth inhibition
Experiment: NCI Yeast Anticancer Drug Screen. Data for the mlh1 rad18 strain (AID 175)
Details: S. cerevisiae mlh1 rad18 strain growth inhibition; at 50.0 µM; active compounds read high
Compounds without any hit were thinned out: in the full panel of roughly 79,000, 15% have a hit.
PROPERTY_MEASURED: growth inhibition (%)

{"MOLECULE": "Oc1cc2c(cc1C(c1ccc(F)cc1)N1CCCC1)OCO2 (stereo unspecified)", "PROPERTY_MEASURED": "growth inhibition", "OBS_VALUE": 35.1}
{"MOLECULE": "COc1ccccc1NC(=O)C(CC(C(=O)Nc1ccccc1OC)/C(C)=N/NC(=O)c1ccccc1O)/C(C)=N/NC(=O)c1ccccc1O (stereo unspecified)", "PROPERTY_MEASURED": "growth inhibition", "OBS_VALUE": -9.1}
{"MOLECULE": "O=C1/C(=C/c2ccccc2)CCCC/C1=C\\c1ccccc1", "PROPERTY_MEASURED": "growth inhibition", "OBS_VALUE": 15.9}
{"MOLECULE": "Cc1nc2c(=O)n(C)c(=O)n(C)c2nc1CCC(=O)O", "PROPERTY_MEASURED": "growth inhibition", "OBS_VALUE": -5.6}
{"MOLECULE": "CC(=O)C(C)(C)OC(=O)COc1ccc(Cl)cc1", "PROPERTY_MEASURED": "growth inhibition", "OBS_VALUE": -24.6}
{"MOLECULE": "Nc1nc(N)c2nc(/C=C/c3ccc4c(c3)OCO4)cnc2n1", "PROPERTY_MEASURED": "growth inhibition", "OBS_VALUE": -13.8}
{"MOLECULE": "CCC1SCC(C)(C)NC1=O (stereo unspecified)", "PROPERTY_MEASURED": "growth inhibition", "OBS_VALUE": 1.4}
{"MOLECULE": "COC(=O)C(=O)C(/C=N/C(=S)NC1CCCCC1)=C(\\O)c1ccc(F)cc1", "PROPERTY_MEASURED": "growth inhibition", "OBS_VALUE": -2.7}
{"MOLECULE": "O=C1C=C(Nc2nc(C(=O)O)cc(=O)[nH]2)c2ccccc2C1=O", "PROPERTY_MEASURED": "growth inhibition", "OBS_VALUE": -24.6}
{"MOLECULE": "NC(=O)N/N=C1\\CCCC(OC(=O)c2ccccc2)CC1 (stereo unspecified)", "PROPERTY_MEASURED": "growth inhibition", "OBS_VALUE": -20.8}
{"MOLECULE": "CO/C=C(/C#N)S(=O)(=O)/C(C#N)=C/OC", "PROPERTY_MEASURED": "growth inhibition", "OBS_VALUE": 15.9}

====

# key: entry, value: growth inhibition
Experiment: NCI Yeast Anticancer Drug Screen. Data for the mlh1 rad18 strain (AID 175)
Conditions: S. cerevisiae mlh1 rad18 strain growth inhibition; at 50.0 µM; active compounds read high
This is part of a sample that, as a whole, favours compounds with a hit. Of some 79,000 tested, about 15% had one in any assay.

{"MOLECULE": "CC(C)CCCCC(C)(C)OC(=O)NC(N)=O", "growth inhibition, %": 9.85}
{"MOLECULE": "COCCCN(Cc1cc(OC)c(OC)c(OC)c1)C(=S)Nc1cccc(SC)c1", "growth inhibition, %": 16.6}
{"MOLECULE": "COc1ccc(/C(Cl)=C(\\C=N/O)c2ccc(OC)c(OC)c2)cc1OC", "growth inhibition, %": -7.45}
{"MOLECULE": "Cc1ccc(NCC(=O)N2CC(=O)Nc3ccccc32)cc1", "growth inhibition, %": -15.8}
{"MOLECULE": "CCOc1ccccc1C(=O)N(CC)CC", "growth inhibition, %": -5.65}
{"MOLECULE": "Cc1ccc(-c2c(C#N)c(-c3ccccc3)n(NS(=O)(=O)c3ccccc3)c(=O)c2C#N)cc1", "growth inhibition, %": 51.1}
{"MOLECULE": "CCN(CC)CC(C)C(O)(Cc1ccccc1)c1ccc(Cl)cc1 (stereo unspecified)", "growth inhibition, %": 17.4}
{"MOLECULE": "CC(=O)Cc1ccc([N+](=O)[O-])cc1", "growth inhibition, %": 12.2}
{"MOLECULE": "Cc1ccc(CNC(=S)Nc2ccc(F)cc2)c(C)c1", "growth inhibition, %": 27.4}
{"MOLECULE": "CNCC(OCCc1ccccc1)c1ccc(O)c(O)c1 (stereo unspecified)", "growth inhibition, %": 21.4}
{"MOLECULE": "CC(=N\\N=C\\c1ccccn1)/C(C)=N/N=C(C)/C(C)=N/N=C/c1ccccn1", "growth inhibition, %": -23.1}

====

Assay: NCI Yeast Anticancer Drug Screen. Data for the mlh1 rad18 strain (AID 175)
Settings: S. cerevisiae mlh1 rad18 strain growth inhibition; at 50.0 µM
Compounds without any hit were thinned out: in the full panel of roughly 79,000, 15% have a hit. Activity calls are given as the source filed them. Cut-off read from the data, not from the text of the source: active = growth inhibition above about 70%; inactive = the rest.
Possible outcomes: True = active, False = inactive

{"COMPOUND": "Cc1ccc(NC(=O)c2ccccc2[N+](=O)[O-])cc1", "GROUP": "False"}
{"COMPOUND": "Fc1cccc(Cl)c1CSc1n[nH]c(C(F)(F)F)n1", "GROUP": "False"}
{"COMPOUND": "CCCNC(=S)N=Nc1c(O)[nH]c2ccccc12", "GROUP": "False"}
{"COMPOUND": "CCOC(=O)c1cc(C)[nH]n1", "GROUP": "False"}
{"COMPOUND": "Cn1nc(Br)c(=O)n(C)c1=O", "GROUP": "False"}
{"COMPOUND": "COc1ccc(C2C(Cl)C(=O)N2NC(=O)c2ccc(NC(C)=O)cc2)cc1 (configuration not stated)", "GROUP": "False"}
{"COMPOUND": "O=C(Nc1cc(Cl)ccc1Cl)Oc1c(Cl)cc(Cl)c(Cl)c1[N+](=O)[O-]", "GROUP": "False"}
{"COMPOUND": "CCOc1ccc(/C=C2\\C=Nc3ccccc32)cc1", "GROUP": "False"}
{"COMPOUND": "O=S(/C=C/C=C/S(=O)(=O)c1ccccc1)c1ccccc1 (configuration not stated)", "GROUP": "True"}
{"COMPOUND": "CSc1ncc(C#N)c2nc(-c3ccccc3)nn12", "GROUP": "False"}
{"COMPOUND": "O=C(NC(=O)c1c(F)cccc1F)Nc1nc2c(Cl)cccc2s1", "GROUP": "False"}
{"COMPOUND": "O=C(C(=Cn1c(=O)cc[nH]c1=S)C(=O)c1ccccc1)c1ccccc1", "GROUP": "False"}

====

# key: entry, value: growth inhibition
Assay: NCI Yeast Anticancer Drug Screen. Data for the bub3 strain (AID 167)
Settings: S. cerevisiae bub3 mutant strain, at 50.0 µM, active compounds read high
The panel holds about 79,000 compounds, 15% with a hit somewhere; the sample as a whole holds those more often.
PROPERTY_MEASURED: growth inhibition (%)

{"MOLECULE": "OC1=CC(=S)NC2CCCCC12 (centres undefined)", "OBS_VALUE": 29.4}
{"MOLECULE": "Cc1ccc(S(=O)(=O)/C=C\\S(=O)(=O)c2ccc(C)cc2)cc1", "OBS_VALUE": 3.15}
{"MOLECULE": "Cc1ccc(C)c2c(CC(=O)O)c[nH]c12", "OBS_VALUE": 6.05}
{"MOLECULE": "COc1ccc(Nc2nc3ccccc3nc2C(=O)O)cc1OC", "OBS_VALUE": 26.1}
{"MOLECULE": "O=C1N(c2cccc(F)c2)C(=O)N1c1cccc(F)c1", "OBS_VALUE": -1.1}
{"MOLECULE": "CCOc1ccccc1NC(=O)C(=O)c1c(O)c2ccc(O)cc2oc1=O", "OBS_VALUE": -3.25}
{"MOLECULE": "C=CCCC1CC(OCC)OC(CCC=C)O1 (centres undefined)", "OBS_VALUE": -6.3}
{"MOLECULE": "COC(=O)C(=O)[C@@H](O)[C@H](O)[C@@H](O)CO", "OBS_VALUE": 25.7}
{"MOLECULE": "CSCCC(NC(C)=O)C(=O)O (centres undefined)", "OBS_VALUE": -4.85}
{"MOLECULE": "COC1C2C[C@@H](O)CCC2C(C(=O)OCCl)C[C@H]1O (some centres undefined)", "OBS_VALUE": -10.6}
{"MOLECULE": "COc1ccc(/C=N/N2CCN(/N=C/c3ccc(OC)c(OC)c3)CC2)cc1OC", "OBS_VALUE": -1.75}
{"MOLECULE": "NC(=O)N/N=C1\\CCCC(OC(=O)c2ccccc2)CC1 (centres undefined)", "OBS_VALUE": -1.5}
{"MOLECULE": "Cc1cc2c(cc1C)C(=O)c1ccccc1C2=O", "OBS_VALUE": -30.7}
{"MOLECULE": "O=C(Nc1ccccc1O)C(O)C(O)C(O)C(O)CO (centres undefined)", "OBS_VALUE": 52.1}
{"MOLECULE": "Cc1nc(N)[nH]c(=O)c1-n1nnc2ccccc2c1=O", "OBS_VALUE": 0.9}
{"MOLECULE": "O=C(Nc1cc(C(F)(F)F)ccc1Cl)N(Cc1ccccc1)c1ccccc1", "OBS_VALUE": -8.2}
{"MOLECULE": "Cc1cc(=O)c(O)c(C)o1", "OBS_VALUE": -0.05}
{"MOLECULE": "CCN(CC)C(=O)Cn1c2c(c3ccccc31)CCCC2", "OBS_VALUE": -2.6}
{"MOLECULE": "CN(c1ccccc1)S(=O)(=O)c1ccc([N+](=O)[O-])cc1", "OBS_VALUE": 21.8}
{"MOLECULE": "Cc1nn(C(=O)Cc2ccccc2)c2c1C(c1ccc(O)cc1O)SC(N)=N2 (centres undefined)", "OBS_VALUE": -15.6}
{"MOLECULE": "CCN=C(NCC)N(CC)CC", "OBS_VALUE": 25.3}
{"MOLECULE": "C(=C\\c1cc(-c2cc(/C=C/c3ccccc3)[nH]n2)n[nH]1)/c1ccccc1", "OBS_VALUE": -8}
{"MOLECULE": "C=C(CCC(Cl)C(COS(=O)(=O)c1ccc(C)cc1)OC(CCCO[Si](c1ccccc1)(c1ccccc1)C(C)(C)C)OCC)[Si](C)(C)C (centres undefined)", "OBS_VALUE": 73}
{"MOLECULE": "[Cl][Pt+2][Cl].[NH-]CC(O)c1ccc2oc3ccccc3c2c1.[NH-]CC(O)c1ccc2oc3ccccc3c2c1 (centres undefined)", "OBS_VALUE": 7.35}
